Biological target: UniProt:P51449
Sequence (P51449 1-497 isoform P51449-2): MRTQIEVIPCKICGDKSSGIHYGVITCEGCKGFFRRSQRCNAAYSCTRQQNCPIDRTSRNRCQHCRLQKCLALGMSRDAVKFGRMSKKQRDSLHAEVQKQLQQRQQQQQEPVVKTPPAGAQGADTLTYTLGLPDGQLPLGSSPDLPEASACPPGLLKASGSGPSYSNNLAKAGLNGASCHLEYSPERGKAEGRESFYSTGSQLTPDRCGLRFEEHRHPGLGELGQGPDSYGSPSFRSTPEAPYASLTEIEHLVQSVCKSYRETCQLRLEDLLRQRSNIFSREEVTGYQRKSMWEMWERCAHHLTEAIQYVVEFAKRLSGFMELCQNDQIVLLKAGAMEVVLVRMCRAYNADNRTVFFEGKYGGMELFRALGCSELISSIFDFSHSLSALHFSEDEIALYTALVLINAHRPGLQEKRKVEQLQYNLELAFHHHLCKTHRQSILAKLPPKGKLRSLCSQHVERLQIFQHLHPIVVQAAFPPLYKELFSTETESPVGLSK
Test: RORE Luciferase/RORγt transactivation assay
Type: cell-based
Set-up: the full-length cDNA of human RORγt; V5-His (encoded by the vector); expressed in transfected cells; host or cells: COS-7 (monkey kidney)
Conditions: COS-7 cells transfected with human IL-17 promoter luciferase reporter and RORγt plasmid, 20 h; read-out: IC50, RORγt activity inhibition (luciferase reporter)
Description: It is well known that RORγ binds to a conserved non-coding sequence (CNS) enhancer element in the IL-17 promoter. Culture medium was changed every 2 days. […] The luciferase activity was then measured with 40 μL/well steady-Glo Luciferase assay system (Promega, Madison, Wis.) and after incubation at room temperature for 30 minutes. The luminescence was estimated using the Ultra384 reader (TECAN). […]
// IC50 lookup, one value per entry

A selection of reference data follows.
# COMPOUND, IC50
data = [
    ("Cc1ccc(C(NC(=O)Cc2cccc(N3CCN(C(=O)C(F)(F)F)CC3)c2)c2ccc(C)o2)c(N2CCCCC2)c1 (stereo not shown)", "< 0.1 µM"),
    ("CC(=O)N1CCN(c2ccc(F)c(CC(=O)NC(c3ccccc3)c3ccc(C)cc3N3CCCCC3)c2)CC1 (stereo not shown)", "0.1 to 1 µM"),
    ("Cc1ccc(C(NC(=O)Cc2cc(N3CCN(C(=O)OC(C)(C)C)CC3)ccc2C)c2ccccc2)c(N2CCCCC2)c1 (stereo not shown)", "> 10 µM"),
    ("COc1ccc(C(NC(=O)Cc2cc(N3CCN(C(C)=O)CC3)ccc2C)c2ccccc2)c(N2CCCCCC2)c1 (stereo not shown)", "0.1 to 1 µM"),
    ("CC(=O)N1CCN(c2ccc(CC(=O)NC(CC(C)C)c3ccccc3N3CCCCC3)cc2)CC1 (stereo not shown)", "0.1 to 1 µM"),
    ("CC(=O)N1CCN(c2ccc(C)c(CC(=O)NC(c3ccccc3)c3ccc(C)cc3N3CCCC3)c2)CC1 (stereo not shown)", "< 0.1 µM"),
]

Form field: reported IC50 of CC(=O)N1CCN(c2ccc(C)c(CC(=O)NC(c3ccc(C)o3)c3ccc(C)cc3N3CCCCC3)c2)CC1 (stereo not shown) < 0.1 µM

These data points were gathered from patent US10987351B2.
